The compounds listed here are annotated with their viability at 1000 molar ratio.
Assay: Cytotoxicity against human Raji cells assessed as cell viability at 1000 molar ratio by Trypan blue method
Format: cell-based
Settings: read-out: Activity
Hi! Could you send only the number? It should be in %, unit omitted.

See these solved cases before continuing.
Compound	viability at 1000 molar ratio, %
COc1cc(/C=C/C(=O)OC[C@H]2O[C@H](O[C@]3(CO)O[C@H](COC(=O)/C=C/c4ccc(O)cc4)[C@@H](O)[C@@H]3OC(=O)/C=C/c3ccc(O)cc3)[C@H](O)[C@@H](O)[C@@H]2O)ccc1O [LAPATHOSIDE C]	70
O=C(/C=C/c1ccc(O)cc1)OC[C@H]1O[C@@](COC(=O)/C=C/c2ccc(O)cc2)(O[C@H]2O[C@H](CO)[C@@H](O)[C@H](O)[C@H]2O)[C@@H](OC(=O)/C=C/c2ccc(O)cc2)[C@@H]1O [HYDROPIPEROSIDE]	70
COc1cc(/C=C/C(=O)OC[C@H]2O[C@H](O[C@]3(COC(=O)/C=C/c4ccc(O)cc4)O[C@H](COC(=O)/C=C/c4ccc(O)cc4)[C@@H](O)[C@@H]3OC(=O)/C=C/c3ccc(O)cc3)[C@H](O)[C@@H](O)[C@@H]2O)ccc1O [VANICOSIDE B]	70
O=C(/C=C/c1ccc(O)cc1)OC[C@H]1O[C@@](CO)(O[C@H]2O[C@H](CO)[C@@H](O)[C@H](O)[C@H]2O)[C@@H](OC(=O)/C=C/c2ccc(O)cc2)[C@@H]1O [LAPATHOSIDE D]	70
Oc1cc(O)c2c(c1)O[C@@H](c1ccc(O)c(O)c1)[C@H](O)C2 [(-)-CATECHIN]	70

(Q) What viability at 1000 molar ratio value was documented for this compound, COc1cc(/C=C/C(=O)OC[C@H]2O[C@H](O[C@]3(COC(=O)/C=C/c4ccc(O)c(OC)c4)O[C@H](COC(=O)/C=C/c4ccc(O)cc4)[C@@H](O)[C@@H]3OC(=O)/C=C/c3ccc(O)cc3)[C@H](O)[C@@H](O)[C@@H]2O)ccc1O [LAPATHOSIDE A] ?
(A) 70

(Q) Which viability at 1000 molar ratio reading was recorded for the compound `CC[C@H](CC[C@@H](C)[C@H]1CC[C@H]2[C@@H]3C(=O)C=C4C[C@@H](O)CC[C@]4(C)[C@H]3CC[C@]12C)C(C)C` ?
(A) 60
